Examples of binders with documented Anti-CD28 Fab signal follow.
- TARGET_ENTITY: T1, Anti-CD28 Fab (SEQ ID NOs: 696, 697)
- T1 construct: In the phage ELISA the Fab was biotinylated and captured on neutravidin coated plates
- ASSAY_NAME: phage binding ELISA; biotinylated anti-CD28 Fab on neutravidin plate, bound phage detected with anti-M13 HRP;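 also: crude supernatants of clonal phage screened, wells pretreated with blocking buffer with or without CD28 antigen before brief phage incubation, washed, then bound phage detected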
Where no end group is shown, it is not given here.
ATTRIBUTE_MEASURED: Anti-CD28 Fab signal

BINDER | VALUE_OBSERVED
YCEGHLPIYLEKCM [Phage-567] | 2.27
YCDGHLPEYLWKCL (cysteine pairing not given here; also: displayed on phage by fusion to pIII, pIII and linker sequence not given here) [Phage-574] | 2.26
YCEGHLGIYMYKCL (cysteine pairing not given here; also: displayed on phage by fusion to pIII, pIII and linker sequence not given here) [Phage-571] | 2.26
YCDGHLPQYMMKCL (cysteine pairing not given here; also: displayed on phage by fusion to pIII, pIII and linker sequence not given here) [Phage-569] | 2.27
YCDGHAPQYMQKCL [Phage-566] | 2.28
YCDGHSTEYLWKCL (cysteine pairing not given here; also: displayed on phage by fusion to pIII, pIII and linker sequence not given here) [Phage-570] | 2.26
YCEGHSPLYMWKCL (cysteine pairing not given here; also: displayed on phage by fusion to pIII, pIII and linker sequence not given here) [Phage-577] | 2.25
YCDGHAAEYMAKCL (cysteine pairing not given here; also: displayed on phage by fusion to pIII, pIII and linker sequence not given here) [Phage-572] | 2.26
YCEGHSPEYMEKCL (cysteine pairing not given here; also: displayed on phage by fusion to pIII, pIII and linker sequence not given here) [Phage-578] | 2.24
YCDGHLSEYMEKCL (cysteine pairing not given here; also: displayed on phage by fusion to pIII, pIII and linker sequence not given here) [Phage-576] | 2.25
